Taken from paper PMC7070953.

- measured_target: nNOS (Rattus norvegicus)
- Sequence (P29476 whole entry): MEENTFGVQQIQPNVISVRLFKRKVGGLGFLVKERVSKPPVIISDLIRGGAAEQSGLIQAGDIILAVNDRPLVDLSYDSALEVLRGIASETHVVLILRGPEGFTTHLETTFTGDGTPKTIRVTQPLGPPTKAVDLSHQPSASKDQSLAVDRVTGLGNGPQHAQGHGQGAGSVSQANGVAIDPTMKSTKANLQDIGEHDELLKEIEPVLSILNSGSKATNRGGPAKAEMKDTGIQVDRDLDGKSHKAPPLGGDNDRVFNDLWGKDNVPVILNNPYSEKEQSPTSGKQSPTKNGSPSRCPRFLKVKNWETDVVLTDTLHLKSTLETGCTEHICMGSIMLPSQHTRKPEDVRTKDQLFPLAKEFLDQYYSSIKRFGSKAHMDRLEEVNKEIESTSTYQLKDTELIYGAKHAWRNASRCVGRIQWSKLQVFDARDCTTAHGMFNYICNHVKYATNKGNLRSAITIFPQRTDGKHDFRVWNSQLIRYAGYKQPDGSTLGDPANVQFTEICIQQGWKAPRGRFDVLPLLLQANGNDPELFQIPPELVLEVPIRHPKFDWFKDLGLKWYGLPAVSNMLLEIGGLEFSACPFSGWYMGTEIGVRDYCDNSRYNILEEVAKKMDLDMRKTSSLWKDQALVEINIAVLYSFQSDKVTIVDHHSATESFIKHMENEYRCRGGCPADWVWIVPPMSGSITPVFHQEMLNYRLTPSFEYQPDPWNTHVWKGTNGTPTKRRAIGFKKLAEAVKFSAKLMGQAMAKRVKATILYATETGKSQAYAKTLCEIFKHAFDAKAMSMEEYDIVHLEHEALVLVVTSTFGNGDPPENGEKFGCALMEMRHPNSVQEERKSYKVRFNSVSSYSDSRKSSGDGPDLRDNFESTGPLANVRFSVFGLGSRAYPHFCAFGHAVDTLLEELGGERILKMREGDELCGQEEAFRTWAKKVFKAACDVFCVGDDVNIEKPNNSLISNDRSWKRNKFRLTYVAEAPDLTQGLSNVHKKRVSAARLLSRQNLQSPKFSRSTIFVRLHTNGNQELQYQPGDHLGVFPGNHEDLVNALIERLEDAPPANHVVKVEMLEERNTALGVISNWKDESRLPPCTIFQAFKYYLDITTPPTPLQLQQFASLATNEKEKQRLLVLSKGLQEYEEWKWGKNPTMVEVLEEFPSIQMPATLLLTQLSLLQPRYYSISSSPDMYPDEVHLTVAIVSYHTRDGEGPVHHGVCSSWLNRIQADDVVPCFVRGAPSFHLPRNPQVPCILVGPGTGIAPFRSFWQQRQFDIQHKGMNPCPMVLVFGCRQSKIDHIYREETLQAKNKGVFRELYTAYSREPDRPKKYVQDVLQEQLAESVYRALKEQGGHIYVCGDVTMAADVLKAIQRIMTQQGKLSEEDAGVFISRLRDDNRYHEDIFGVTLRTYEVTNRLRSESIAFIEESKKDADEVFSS
- measurement_description: Fluorescence titration of NT binding to recombinant nNOS
- Parameters: made in house
- condition_label: b: [NTs] = 1 or 2 µM, [nNOS] = 0–10 µM, 10 mM Tris pH 7.2, 100 mM NaCl; read-out: Apparent Kd nNOS
- Protocol: The apparent binding affinities of the NTs to the neuronal (nNOS) and endothelial (eNOS) isoforms of nitric oxide synthase (NOS) were assessed by changes in NT intrinsic fluorescence using two types of titrations. In the first method, aliquots (1 μL) were added to 100 μL buffer containing NOS protein (5 μM), and fluorescence emission spectra were recorded from 430–700 nm (λexcitation = 420 nm; slit widths = 5 nm) on a Shimadzu RF-5301PC fluorimeter. […]
readout_label: pKd
Lab note — pKd values are minus log10 of concentrations in M.

Reported pKd of CN(Cc1cn(C[C@H]2O[C@@H](n3cnc4c(N)ncnc43)[C@H](O)[C@@H]2OCC(=O)O)nn1)c1ccc(/C=C/C=C/c2ccc(N)cc2)cc1 [NT2_5] : 5.89
